- Test system: Y79 cells
- MEASUREMENT PROTOCOL: Cytotoxicity dose response in 384-well plates (Alamar Blue), Y79
- Assay type: cell-based, human
- COND: Homo sapiens, Y79; read-out: IC50 toward Y79 cells
Each item that follows carries a reported IC50.
EXPERIMENTAL ENDPOINT: IC50

compound="COc1cc([C@@H]2c3cc4c(cc3[C@@H](O[C@@H]3O[C@@H]5CO[C@@H](C)O[C@H]5[C@H](O)[C@H]3O)[C@H]3COC(=O)[C@H]23)OCO4)cc(OC)c1O [etoposide]" assay_result="11 µM"
compound="C[C@@H]1O[C@@H](O[C@H]2C[C@@H](O)[C@]3(CO)[C@H]4[C@H](O)C[C@]5(C)[C@@H](C6=CC(=O)OC6)CC[C@]5(O)[C@@H]4CC[C@]3(O)C2)[C@H](O)[C@H](O)[C@H]1O [ouabain]" assay_result="0.65 µM"
